system: HOP-92 NSCLC; assay: NCI-60 one-dose screen, 48 h; settings: 10 µM unless noted
The panel holds about 83,000 compounds, 20% with a hit somewhere; the sample as a whole holds those more often. The source made the active and inactive calls. The calls were made as follows: active = growth percent below 10; inactive = the rest.
Classes used: active, inactive

# molecule, target-desc, assigned-class
data = [
    ("CCCCOc1ccc(S(=O)(=O)N2CCN(c3nccc(N4CCOCC4)n3)CC2)cc1", "HOP-92 NSCLC", "inactive"),
    ("O=C1c2c(c3c4cccnc4[nH]c3c3ccc4ccccc4c23)C(=O)N1CCN1CCOCC1", "HOP-92 NSCLC", "inactive"),
    ("CS(=O)(=O)c1nccc(-c2c(-c3ccc(F)c(OCc4ccc(F)cc4)c3)nc3sccn23)n1", "HOP-92 NSCLC", "inactive"),
    ("O=C(/C=C/c1cccc(O)c1)c1ccc(O)cc1", "HOP-92 NSCLC", "inactive"),
    ("N#C/C(=C\\c1ccc(Cl)cc1Cl)C(N)=O", "HOP-92 NSCLC", "inactive"),
    ("C#C[C@]1(O)CC[C@H]2[C@@H]3CC=C4c5sc(Nc6cc(Cl)ccn6)nc5CC[C@]4(C)[C@H]3CC[C@@]21C", "HOP-92 NSCLC", "inactive"),
    ("CN1CCN(c2ccc(C(=O)Nc3cccc(-c4cn(-c5ccc(S(N)(=O)=O)cc5)nn4)c3)cc2C(F)(F)F)CC1", "HOP-92 NSCLC", "inactive"),
    ("CCCCCCCCCC[C@@H](C)[C@@H]1CC(=O)N[C@H]([C@@H](C)O)C(=O)N[C@@H](C)C(=O)N[C@H](C)C(=O)N[C@@H](CCC(N)=O)C(=O)N[C@H](Cc2ccc(O)cc2)C(=O)N[C@@H](C(C)CC)C(=O)O1 (stereo not given in full)", "HOP-92 NSCLC", "inactive"),
    ("CC(=O)NC(C)(C)C(=O)N[C@@H](C)C(=O)NC(C)(C)C(=O)N[C@@H](C)C(=O)NC(C)(C)C(=O)N[C@@H](C)C(=O)N[C@@H](CCC(N)=O)C(=O)NC(C)(C)C(=O)N[C@H](C(=O)NC(C)(C)C(=O)NCC(=O)N[C@@H](CC(C)C)C(=O)NC(C)(C)C(=O)N1CCC[C@H]1C(=O)N[C@H](C(=O)NC(C)(C)C(=O)NC(C)(C)C(=O)N[C@@H](CCC(N)=O)C(=O)N[C@@H](CCC(N)=O)C(=O)N[C@H](CO)CC1CCCCC1)C(C)C)C(C)C", "HOP-92 NSCLC", "active"),
    ("CCN1C(=O)N(CC)C2SC(N/N=C/c3ccccc3)=NC21 (stereo not given)", "HOP-92 NSCLC", "active"),
    ("O=C(CCCCCCN1CC(=O)N2[C@@H](c3ccc(Cl)c(F)c3)c3[nH]c4ccccc4c3C[C@H]2C1=O)NO", "HOP-92 NSCLC", "inactive"),
    ("N#Cc1c(NC(=O)c2ccccc2C(F)(F)F)sc2c1CCC(=O)C2", "HOP-92 NSCLC", "active"),
    ("O=C(C[n+]1ccnc2ccccc21)c1ccc(O)c(O)c1", "HOP-92 NSCLC", "inactive"),
    ("O=S(=O)(Nc1ccc(-c2nc(-c3cccc(O)c3)c(-c3ccnc(Br)c3)[nH]2)cc1)c1ccccc1", "HOP-92 NSCLC", "inactive"),
    ("O=C1c2c(c3c4cccnc4[nH]c3c3ccc4ccccc4c23)C(=O)N1CCN1CCNCC1", "HOP-92 NSCLC", "inactive"),
]

----------
test system: 786-0 renal; experiment: NCI-60 one-dose screen, 48 h (100 = growth as untreated, 0 = no growth, -100 = all killed); settings: 10 µM unless noted
About 83,000 compounds went through this panel and 20% of them were active in at least one assay; those are over-represented in the sample as a whole.

# compound, target-desc, endpoint-unit, growth
records = [
    ("CC1(C)CC[C@]2(C(=O)O)CC[C@]3(C)C(=CCC4[C@@]5(C)C[C@@H](O)[C@@H]6OC(c7cccc([N+](=O)[O-])c7)OC[C@@]6(C)C5CC[C@]43C)C2C1 (stereo partly drawn)", "786-0 renal", "%", 90.9),
    ("N#Cc1c(-c2cccs2)cc(-c2cnccn2)nc1SCC(=O)NNC(=S)Nc1ccc(F)cc1", "786-0 renal", "%", 99.3),
    ("O=C1[C@H]2Cc3c([nH]c4ccccc34)[C@H](c3ccc(Cl)cc3)N2C(=O)CN1C1CCN(Cc2c(Cl)cccc2Cl)CC1", "786-0 renal", "%", 66),
    ("CCOC(=O)c1nn(-c2ccccc2)c(=O)c2c(N)c(C#N)c(-c3cccs3)cc12", "786-0 renal", "%", 41.4),
    ("Cc1ccc(NC(=O)c2cccc(CN3CCN(C)CC3)c2)cc1Oc1ccc(-c2[nH]nc3ncnc(N)c23)cc1", "786-0 renal", "%", 40.8),
    ("Cc1[nH]nc2ccc(-c3nc4cnc(N5CCN(C)CC5)cn4c3Nc3ccc(F)cc3Br)cc12", "786-0 renal", "%", 4.67),
    ("CC1OC(O[C@@H]2C(O)C(CO)OC(O[C@H]3COC(O[C@H]4CC[C@]5(C)[C@H]6CC[C@]78OC[C@@]9(CC[C@](C)(C=O)C[C@H]97)[C@H](O)C[C@@]8(C)[C@]6(C)CC[C@H]5C4(C)C)[C@@H](OC4OC(CO)[C@@H](O)[C@@H](O)[C@@H]4O)[C@@H]3O)[C@H]2OC2OC[C@@H](O)[C@@H](O)[C@@H]2O)[C@@H](O)[C@@H](O)[C@H]1O (stereo partly drawn)", "786-0 renal", "%", -53),
    ("CCCCCCNC(=O)Oc1ccc(/C(=C(\\C)c2ccc(Cl)cc2)c2ccc(OCCN(C)C)cc2)cc1", "786-0 renal", "%", 39.8),
    ("Cc1ccc(/C=C/c2nn3c(-c4ccco4)nnc3s2)cc1", "786-0 renal", "%", 88.4),
    ("CC1(COc2ccc3ncc(C#Cc4cncc(C(=O)Nc5cc(C(C)(C)C)on5)c4)n3n2)COC1", "786-0 renal", "%", 52.3),
    ("CCOC(=O)c1nn(-c2ccc(C)cc2)c(=O)c2c(N)c(C#N)c(-c3ccc(OC)cc3)cc12", "786-0 renal", "%", 108),
    ("O=C1c2c(c3c4ccc(Br)cc4oc3c3[nH]c4ccccc4c23)C(=O)N1CCO", "786-0 renal", "%", 30.9),
    ("N/C(=N\\OC(=O)CSc1nc2ccccc2s1)c1ccc(Cl)cc1", "786-0 renal", "%", 102),
    ("CN1CCN(c2ccc3c(c2)nc(NNC(=O)c2ccncn2)c2cccn23)CC1", "786-0 renal", "%", 9.5),
    ("O=C(COc1ccc(C2SCC(=O)N2c2ccccc2)cc1)c1ccccc1 (stereo not drawn)", "786-0 renal", "%", 102),
    ("CCCCCCCCCC[C@@H](C)[C@@H]1CC(=O)N[C@H]([C@@H](C)O)C(=O)N[C@@H](C)C(=O)N[C@H](C)C(=O)N[C@@H](CCC(N)=O)C(=O)N[C@H](Cc2ccc(O)cc2)C(=O)N[C@@H](C(C)CC)C(=O)O1 (stereo partly drawn)", "786-0 renal", "%", 91.8),
    ("O=C1[C@H]2Cc3c([nH]c4ccccc34)[C@@H](c3c(Cl)cccc3Cl)N2C(=O)CN1C1CCN(Cc2ccccc2)CC1", "786-0 renal", "%", -58.2),
    ("COc1ccc(-c2nc(SCC(C)C)nc(N/N=C\\c3cccc([N+](=O)[O-])c3)c2C#N)cc1", "786-0 renal", "%", 4.44),
    ("N/C(=N\\c1nc2ccc([N+](=O)[O-])cc2s1)C(Cl)(Cl)Cl", "786-0 renal", "%", 80.5),
    ("O=C(NNc1nc2cc(F)ccc2n2cncc12)c1cnccn1", "786-0 renal", "%", 10),
    ("CN1C(=O)/C(=C/C=C/c2ccco2)SC1=S", "786-0 renal", "%", 84.9),
    ("CNC(=O)c1cc(Oc2ccc3nc(NC(=O)c4ccc(CN5CCN(C)CC5)c(C(F)(F)F)c4)sc3c2)ccn1", "786-0 renal", "%", 22.3),
    ("CCCCCCNC(=O)Oc1ccc(/C(=C(/C)c2ccc(Cl)cc2)c2ccc(OCCN3CCCC3)cc2)cc1", "786-0 renal", "%", -28.8),
    ("COC[C@]12CC[C@@H](C)[C@H](C)[C@H]1C1=CC[C@@H]3[C@@]4(C)CCCNC(C)(C)[C@@H]4CC[C@@]3(C)[C@]1(C)CC2", "786-0 renal", "%", 21.1),
    ("C#CCOc1ccc(C(Nc2cc(Cl)ccc2Cl)c2nnnn2C2CCCCC2)cc1 (stereo not drawn)", "786-0 renal", "%", 90),
    ("Cc1ccc(-c2cc(-c3cccc4ccccc34)n3c(n2)nc2ccccc23)cc1", "786-0 renal", "%", 47.6),
    ("O=S(=O)(Nc1ccc(I)c(Cl)c1)c1ccc(-c2cnc(C3CC3)o2)cc1", "786-0 renal", "%", 41.7),
    ("COc1ccc([C@H]2[C@H](O)C(=O)N2c2cc(OC)c(OC)c(OC)c2)cc1O", "786-0 renal", "%", 17.4),
    ("CCOC(=O)C1=C(C)Nc2nc3ccccc3n2C1c1cccc(Br)c1 (stereo not drawn)", "786-0 renal", "%", 93.5),
    ("CCOC(=O)/C(F)=C/C1CC1CCc1cccc(C(F)(F)F)c1 (stereo not drawn)", "786-0 renal", "%", 103),
    ("CSc1nccc(-c2c(-c3ccc(F)c(OCc4ccc(F)cc4)c3)nc3sccn23)n1", "786-0 renal", "%", 74.4),
    ("COc1ccc(-c2nnc(SCc3ccc(O)c4ncccc34)o2)cc1", "786-0 renal", "%", 38.2),
    ("Cn1c(SC(C(=O)Nc2ccc(F)cc2)c2ccccc2)nc2ccccc2c1=O (stereo not drawn)", "786-0 renal", "%", 102),
]
